# experimental.target: T1, 4H3298-bA
# T1 chain: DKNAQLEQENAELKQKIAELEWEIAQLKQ
# assay.overview: two-hybrid library CCNG1;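 further: natural log of median RNA to DNA barcode read ratio; higher means stronger binding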
metric: interaction score
Reply with the value as a number alone.

# example entries with known answers
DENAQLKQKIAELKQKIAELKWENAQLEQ [4H1899-bA]; -0.142
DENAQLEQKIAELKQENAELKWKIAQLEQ [4H1373-bA]; -0.776
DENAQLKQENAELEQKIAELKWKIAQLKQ [4H1710-bA]; 0.819
DKNAQLEQENAELKQKIAELEWEIAQLKQ [4H3298-bA]; 1.02
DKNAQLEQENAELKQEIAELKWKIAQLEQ [4H3277-bA]; -0.215
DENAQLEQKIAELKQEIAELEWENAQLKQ [4H1348-bA]; -0.624

--- query ---
Ask: Looking for the measured interaction score of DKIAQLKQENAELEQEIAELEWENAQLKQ [4H2692-bA] , can you help?
Reply: 1.59
